meta.source: patent US4122179A

- assay-text: Hematic levels at different times after oral administration (absorption)
- Type: in vivo, Wistar rat
- measurement-context: 100 mg/kg expressed as vincamine/apovincamine, 5% carboxymethyl cellulose suspension, 100 mg/kg
Counter-ions that a name gives are not always drawn.
reported-metric: Max. conc. time (min)
Answers are plain numbers, in min.

In the examples that follow, each entry is paired with its recorded Max. conc. time.
compound: CC[C@@]12C=C(C(=O)OC)n3c4c(c5ccccc53)CCN(CCC1)[C@H]42 [Example 15.b, Apovincamine nicotinate]
Max. conc. time / min: 60
//
compound: CC[C@]12CCCN3CCc4c(n(c5ccccc45)[C@@](O)(C(=O)OC)C1)[C@@H]32 [Example 4.c, glucose-6-phosphate acid salt]
Max. conc. time / min: 240

Answer with reported Max. conc. time of CC[C@]12CCCN3CCc4c(n(c5ccccc45)[C@@](O)(C(=O)OC)C1)[C@@H]32 [Example 2.a, Vincamine 2,4-dihydroxy-benzoate]
120

---

- assay-text: Solubility
- Format: physicochemical
- measurement-context: water; qualitative

molecule: CC[C@@]12C=C(C(=O)OC)n3c4c(c5ccccc53)CCN(CCC1)[C@H]42 [Example 11.b, Apovincamine 4-acetamidobutyrate]
solubility in water: insoluble
--
molecule: CC[C@@]12C=C(C(=O)OC)n3c4c(c5ccccc53)CCN(CCC1)[C@H]42 [Example 10.b, Apovincamine pivalate]
solubility in water: insoluble
--
molecule: CC[C@]12CCCN3CCc4c(n(c5ccccc45)[C@@](O)(C(=O)OC)C1)[C@@H]32 [Example 26.a]
solubility in water: insoluble

---

- assay-text: Solubility
- Assay type: physicochemical
- measurement-context: alcohol (ethyl alcohol); qualitative
reported-metric: solubility in alcohol

In the examples that follow, each entry is paired with its recorded solubility in alcohol.
molecule: CC[C@]12CCCN3CCc4c(n(c5ccccc45)[C@@](O)(C(=O)OC)C1)[C@@H]32 [Example 8.a, Vincamine p-toluensulfonate]
solubility in alcohol: soluble
--
molecule: CC[C@@]12C=C(C(=O)OC)n3c4c(c5ccccc53)CCN(CCC1)[C@H]42 [Example 16.b, Apovincamine acetylsalicylate]
solubility in alcohol: soluble
--
molecule: CC[C@@]12C=C(C(=O)OC)n3c4c(c5ccccc53)CCN(CCC1)[C@H]42 [Example 22.b, Apovincamine caprate]
solubility in alcohol: insoluble
--
molecule: CC[C@]12CCCN3CCc4c(n(c5ccccc45)[C@@](O)(C(=O)OC)C1)[C@@H]32 [Example 2.a, Vincamine 2,4-dihydroxy-benzoate]
solubility in alcohol: soluble
--
molecule: CC[C@@]12C=C(C(=O)OC)n3c4c(c5ccccc53)CCN(CCC1)[C@H]42 [Example 28.b, Apovincamine salicylate]
solubility in alcohol: soluble

# map each molecule to its solubility in alcohol
1. CC[C@@]12C=C(C(=O)OC)n3c4c(c5ccccc53)CCN(CCC1)[C@H]42 [Example 13.b, Apovincamine D(+)-camphorsulfonate]
2. CC[C@@]12C=C(C(=O)OC)n3c4c(c5ccccc53)CCN(CCC1)[C@H]42 [Example 11.b, Apovincamine 4-acetamidobutyrate]
3. CC[C@]12CCCN3CCc4c(n(c5ccccc45)[C@@](O)(C(=O)OC)C1)[C@@H]32 [Example 11.a, Vincamine 4-acetamidobutyrate]
4. CC[C@]12CCCN3CCc4c(n(c5ccccc45)[C@@](O)(C(=O)OC)C1)[C@@H]32 [Example 20.a, Vincamine theophylline-7-acetate]
5. CC[C@]12CCCN3CCc4c(n(c5ccccc45)[C@@](O)(C(=O)OC)C1)[C@@H]32 [Example 12.a, Vincamine furoate (furan-2-carboxylate)]
6. CC[C@@]12C=C(C(=O)OC)n3c4c(c5ccccc53)CCN(CCC1)[C@H]42 [Example 25.b, Apovincamine (D,L)-mandelate]

1: soluble; 2: insoluble; 3: insoluble; 4: soluble; 5: insoluble; 6: soluble

---

- assay-text: LD50 / acute toxicity, intraperitoneal route
- Assay type: in vivo
- measurement-context: i.p.
I'd be grateful if you could share measured LD50 for these entries.
Answers are plain numbers, in mg/kg.

In the examples that follow, each entry is paired with its recorded LD50.
compound: CC[C@]12CCCN3CCc4c(n(c5ccccc45)[C@@](O)(C(=O)OC)C1)[C@@H]32 [Example 9.a]
LD50 / mg/kg: 900
//
compound: CC[C@]12CCCN3CCc4c(n(c5ccccc45)[C@@](O)(C(=O)OC)C1)[C@@H]32 [Example 11.a, Vincamine 4-acetamidobutyrate]
LD50 / mg/kg: 700
//
compound: CC[C@]12CCCN3CCc4c(n(c5ccccc45)[C@@](O)(C(=O)OC)C1)[C@@H]32 [Example 28.a, Vincamine salicylate]
LD50 / mg/kg: 700
//
compound: CC[C@]12CCCN3CCc4c(n(c5ccccc45)[C@@](O)(C(=O)OC)C1)[C@@H]32 [Example 6.a, Vincamine 2,5-dihydroxybenzoate]
LD50 / mg/kg: 800
//
compound: CC[C@@]12C=C(C(=O)OC)n3c4c(c5ccccc53)CCN(CCC1)[C@H]42 [Example 19.b, Apovincamine p-chlorophenoxyacetate]
LD50 / mg/kg: 750
//
compound: CC[C@]12CCCN3CCc4c(n(c5ccccc45)[C@@](O)(C(=O)OC)C1)[C@@H]32 [Example 7.a, Vincamine 3,5-dihydroxybenzoate]
LD50 / mg/kg: 850

# map each compound to its LD50
1. CC[C@@]12C=C(C(=O)OC)n3c4c(c5ccccc53)CCN(CCC1)[C@H]42 [Example 5.b, Apovincamine 2,6-dihydroxybenzoate]
2. CC[C@@]12C=C(C(=O)OC)n3c4c(c5ccccc53)CCN(CCC1)[C@H]42 [Example 11.b, Apovincamine 4-acetamidobutyrate]
3. CC[C@]12CCCN3CCc4c(n(c5ccccc45)[C@@](O)(C(=O)OC)C1)[C@@H]32 [Example 2.a, Vincamine 2,4-dihydroxy-benzoate]
4. CC[C@@]12C=C(C(=O)OC)n3c4c(c5ccccc53)CCN(CCC1)[C@H]42 [Example 15.b, Apovincamine nicotinate]

750
1500
750
750

# map each compound to its LD50
1. CC[C@]12CCCN3CCc4c(n(c5ccccc45)[C@@](O)(C(=O)OC)C1)[C@@H]32 [Example 10.a]
2. CC[C@]12CCCN3CCc4c(n(c5ccccc45)[C@@](O)(C(=O)OC)C1)[C@@H]32 [Example 8.a, Vincamine p-toluensulfonate]
3. CC[C@@]12C=C(C(=O)OC)n3c4c(c5ccccc53)CCN(CCC1)[C@H]42 [Example 28.b, Apovincamine salicylate]

1. 1300
2. 1250
3. 750

---

- assay-text: Hematic levels at different times after oral administration (absorption)
- Type: in vivo, Wistar rat
- measurement-context: 100 mg/kg expressed as vincamine/apovincamine, 5% carboxymethyl cellulose suspension, 100 mg/kg
Classify: True when Max. conc. time is strictly less than 200 min; False when Max. conc. time is not.

Some solved entries appear below for comparison.
molecule: CC[C@]12CCCN3CCc4c(n(c5ccccc45)[C@@](O)(C(=O)OC)C1)[C@@H]32 [Example 26.a]
category: True
--
molecule: CC[C@]12CCCN3CCc4c(n(c5ccccc45)[C@@](O)(C(=O)OC)C1)[C@@H]32 [Example 18.a, Vincamine enanthate]
category: True

Consider the molecule CC[C@@]12C=C(C(=O)OC)n3c4c(c5ccccc53)CCN(CCC1)[C@H]42 [Example 13.b, Apovincamine D(+)-camphorsulfonate] . Is its Max. conc. time strictly less than 200 min?
True

Consider the molecule CC[C@]12CCCN3CCc4c(n(c5ccccc45)[C@@](O)(C(=O)OC)C1)[C@@H]32 [Example 9.a] . Is its Max. conc. time strictly less than 200 min?
False

Consider the molecule CC[C@]12CCCN3CCc4c(n(c5ccccc45)[C@@](O)(C(=O)OC)C1)[C@@H]32 [Example 22.a, Vincamine caprate] . Is its Max. conc. time strictly less than 200 min?
True

Consider the molecule CC[C@]12CCCN3CCc4c(n(c5ccccc45)[C@@](O)(C(=O)OC)C1)[C@@H]32 [Example 11.a, Vincamine 4-acetamidobutyrate] . Is its Max. conc. time strictly less than 200 min?
False

---

- assay-text: Hematic levels at different times after oral administration (absorption)
- Assay type: in vivo, Wistar rat
- measurement-context: 100 mg/kg expressed as vincamine/apovincamine, 5% carboxymethyl cellulose suspension, 100 mg/kg
reported-metric: Max. conc. time (min)
Numbers only, in min.

In the examples that follow, each entry is paired with its recorded Max. conc. time.
compound: CC[C@]12CCCN3CCc4c(n(c5ccccc45)[C@@](O)(C(=O)OC)C1)[C@@H]32 [Example 14.a, Vincamine L(+)-O,O-dibenzoyltartrate]
Max. conc. time / min: 60
--
compound: CC[C@@]12C=C(C(=O)OC)n3c4c(c5ccccc53)CCN(CCC1)[C@H]42 [Example 7.b, Apovincamine 3,5-dihydroxybenzoate]
Max. conc. time / min: 240
--
compound: CC[C@@]12C=C(C(=O)OC)n3c4c(c5ccccc53)CCN(CCC1)[C@H]42 [Example 14.b, Apovincamine L(+)-O,O-dibenzoyltartrate]
Max. conc. time / min: 120
--
compound: CC[C@]12CCCN3CCc4c(n(c5ccccc45)[C@@](O)(C(=O)OC)C1)[C@@H]32 [Example 20.a, Vincamine theophylline-7-acetate]
Max. conc. time / min: 60
--
compound: CC[C@@]12C=C(C(=O)OC)n3c4c(c5ccccc53)CCN(CCC1)[C@H]42 [Example 6.b, Apovincamine 2,5-dihydroxybenzoate]
Max. conc. time / min: 240
--
compound: CC[C@]12CCCN3CCc4c(n(c5ccccc45)[C@@](O)(C(=O)OC)C1)[C@@H]32 [Example 27.a, Vincamine hydroquinone]
Max. conc. time / min: 120
--
compound: CC[C@@]12C=C(C(=O)OC)n3c4c(c5ccccc53)CCN(CCC1)[C@H]42 [Apovincamine, apovincamine]
Max. conc. time / min: 60
--
compound: CC[C@]12CCCN3CCc4c(n(c5ccccc45)[C@@](O)(C(=O)OC)C1)[C@@H]32 [Example 13.a, Vincamine D(+)-camphorsulfonate]
Max. conc. time / min: 60

# map each compound to its Max. conc. time
1. CC[C@@]12C=C(C(=O)OC)n3c4c(c5ccccc53)CCN(CCC1)[C@H]42 [Example 19.b, Apovincamine p-chlorophenoxyacetate]
2. CC[C@]12CCCN3CCc4c(n(c5ccccc45)[C@@](O)(C(=O)OC)C1)[C@@H]32 [Example 28.a, Vincamine salicylate]
3. CC[C@@]12C=C(C(=O)OC)n3c4c(c5ccccc53)CCN(CCC1)[C@H]42 [Example 26.b, Apovincamine indolyl-3-acetate]
4. CC[C@]12CCCN3CCc4c(n(c5ccccc45)[C@@](O)(C(=O)OC)C1)[C@@H]32 [Example 8.a, Vincamine p-toluensulfonate]

480
240
120
480
